target desc: focal adhesion kinase (FAK) (Homo sapiens, UniProt Q05397)
Sequence (Q05397 whole entry): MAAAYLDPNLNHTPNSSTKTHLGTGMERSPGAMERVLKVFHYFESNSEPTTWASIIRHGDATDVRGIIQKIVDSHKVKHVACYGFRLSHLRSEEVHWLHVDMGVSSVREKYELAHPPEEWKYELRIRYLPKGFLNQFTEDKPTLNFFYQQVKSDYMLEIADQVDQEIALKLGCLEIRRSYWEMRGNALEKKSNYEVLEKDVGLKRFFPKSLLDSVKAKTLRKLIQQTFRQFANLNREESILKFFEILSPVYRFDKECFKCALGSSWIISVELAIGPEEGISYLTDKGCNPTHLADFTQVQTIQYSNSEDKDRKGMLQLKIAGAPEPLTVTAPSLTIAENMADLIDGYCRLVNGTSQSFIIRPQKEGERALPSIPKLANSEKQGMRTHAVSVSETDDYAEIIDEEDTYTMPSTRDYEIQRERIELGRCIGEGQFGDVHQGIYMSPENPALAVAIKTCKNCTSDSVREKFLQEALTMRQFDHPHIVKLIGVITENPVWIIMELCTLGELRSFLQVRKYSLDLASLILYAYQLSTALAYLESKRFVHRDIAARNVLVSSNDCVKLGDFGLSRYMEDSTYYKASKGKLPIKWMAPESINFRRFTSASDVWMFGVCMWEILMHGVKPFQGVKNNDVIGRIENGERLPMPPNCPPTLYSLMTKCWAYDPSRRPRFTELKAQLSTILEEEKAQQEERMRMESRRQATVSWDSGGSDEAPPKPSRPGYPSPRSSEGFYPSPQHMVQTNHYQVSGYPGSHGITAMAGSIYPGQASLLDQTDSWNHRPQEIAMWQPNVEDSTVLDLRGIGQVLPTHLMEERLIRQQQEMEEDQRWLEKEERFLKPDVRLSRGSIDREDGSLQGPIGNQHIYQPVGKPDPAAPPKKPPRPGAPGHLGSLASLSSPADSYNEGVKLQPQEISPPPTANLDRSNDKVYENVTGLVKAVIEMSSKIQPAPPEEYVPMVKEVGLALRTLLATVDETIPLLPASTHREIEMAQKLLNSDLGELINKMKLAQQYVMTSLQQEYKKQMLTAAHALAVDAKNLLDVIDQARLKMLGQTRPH
pIC50: −log10 of the molar value.
measured parameter: pIC50

record_smiles=CN(c1ncccc1CCc1ccnc(Nc2ccc(NC(=O)c3cccnc3)cc2)n1)S(C)(=O)=O measured_parameter=pIC50 result="5.52 to 6.52"
record_smiles=CN(c1ncccc1CCc1ccnc(Nc2ccc(N3CCOCC3=O)cc2)n1)S(C)(=O)=O measured_parameter=pIC50 result="5.52 to 6.52"
record_smiles=CN(c1ccccc1CCc1ccnc(Nc2ccc(F)c(C#N)c2)n1)S(C)(=O)=O measured_parameter=pIC50 result="4.30 to 5.52"

Report pIC50 for CNC(=O)Cc1ccc(Nc2nccc(CCc3ccccc3N(C)S(C)(=O)=O)n2)cc1 please. 5.52 to 6.52

Report pIC50 for N#CC1(c2cc(F)ccc2CCc2ccnc(Nc3ccc4c(c3)CC(=O)N4)n2)CCC1 please. 5.52 to 6.52

Report pIC50 for CN(c1ncccc1CCc1ccnc(Nc2ccc3c(c2)CC(=O)N3)n1)S(C)(=O)=O please. 5.52 to 6.52

Report pIC50 for CN(c1ccccc1CCc1ccnc(Nc2ccc(N3C(=O)c4ccccc4C3=O)cc2)n1)S(C)(=O)=O please. 5.52 to 6.52

Report pIC50 for O=C1Cc2cc(Nc3ncc(C(F)(F)F)c(CCc4ccccc4)n3)ccc2N1 please. 5.52 to 6.52

###

target desc: FAK (Homo sapiens, UniProt Q05397)
Construct: HT29 cells are sown out with 30,000 cells per well; endogenous in cells; host or cells: HT29
assay info: Cellular testing of FAK kinase inhibitors: autophosphorylation of FAK at tyrosine 397 in HT29 cells (Luminex)
Type: cell-based
measurement setup: FAK inhibition, P-Y397-FAK in HT29 cells, 30 min, serum-free
measured parameter: IC50

record_smiles=CN(c1ncccc1CCc1ccnc(Nc2ccc3c(c2)n(C)c(=O)n3C)n1)S(C)(=O)=O measured_parameter=IC50 result="3 to 50 µM"
record_smiles=CN(c1ccccc1CCc1ccnc(Nc2ccc3c(c2)CCC(=O)N3)n1)S(C)(=O)=O measured_parameter=IC50 result="3 to 50 µM"
record_smiles=CN(c1ccccc1CCc1ccnc(Nc2ccc(N3CCCCC3=O)c(C#N)c2)n1)S(C)(=O)=O measured_parameter=IC50 result="0.3 to 3 µM"
record_smiles=CN(c1ccccc1CCc1ccnc(Nc2ccc(NC(=O)c3cccnc3)cc2)n1)S(C)(=O)=O measured_parameter=IC50 result="0.3 to 3 µM"
record_smiles=CC(=O)N1CCc2cc(Nc3nccc(CCc4ccccc4N(C)S(C)(=O)=O)n3)ccc21 measured_parameter=IC50 result="3 to 50 µM"

Would you kindly look at the next entry?
Report IC50 for CN(c1ncccc1CCc1ccnc(NCc2ccc(=O)[nH]n2)n1)S(C)(=O)=O please. 3 to 50 µM

###

pIC50: −log10 of the molar value.
// values below are pIC50; system is focal adhesion kinase (FAK) (Homo sapiens, UniProt Q05397)

Would you please look over these solved cases?
record_smiles=CN(c1ncccc1CCc1ccnc(Nc2ccc3c(c2)n(C)c(=O)n3C)n1)S(C)(=O)=O result="5.52 to 6.52"
record_smiles=CN(c1ccccc1CCc1ccnc(Nc2cc(Cl)c(N3CCCC3=O)c(Cl)c2)n1)S(C)(=O)=O result="5.52 to 6.52"
record_smiles=CC(=O)N1CCc2cc(Nc3nccc(CCc4ccccc4N(C)S(C)(=O)=O)n3)ccc21 result="> 6.52"

Report pIC50 for O=C1CCc2cc(Nc3ncc(C(F)(F)F)c(CCc4ccccc4)n3)ccc2N1 please. 5.52 to 6.52
